Entry source: the supplement of paper PMC10567573

B1: ZNF207 (parent)
chain: FQPQPVQPQQGYIPPMAQPGLPPV

Variants of: B1
test-summary: protein stability index of a GFP-peptide fusion (GPS, HEK-293T) (PSI 1-6); higher = more stable;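 also: lentivirally expressed fusions sorted by FACS into six bins by GFP to DsRed ratio, PSI derived from sequencing read proportions per bin multiplied by bin number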
cond: c terminus: a fixed tail appended
observed-property: protein stability index
Could you keep your reply to the number by itself?

[ask] Find the recorded protein stability index belonging to FQPQPVQPQQGYIMPMAQPGLPPV [P14M] and report it.
[reply] 2.88

[ask] Please give the result for FQPQPVQPQQGYYPPMAQPGLPPV [I13Y] too.
[reply] 2.88

[ask] Again, but for FQWQPVQPQQGYIPPMAQPGLPPV [P3W]
[reply] 2.26

[ask] Follow-up item: FQPQPVQCQQGYIPPMAQPGLPPV [P8C]
[reply] 2.54

[ask] Entry FQPQPVQPQQGYIPPMAQPGLPTV [P23T] please
[reply] 2.89

[ask] Same question for FQPQPVQPQQGYIPPMAQPGLPDV [P23D] please.
[reply] 3.28

[ask] Same lookup for FQPQPVQPQQGYIPPMAQPGCPPV [L21C] , please.
[reply] 3.64

[ask] Cool, now FQPQPVQPQQGYIPPMAQPGLPCV [P23C]
[reply] 2.91

[ask] Next entry: GQPQPVQPQQGYIPPMAQPGLPPV [F1G]
[reply] 4.37

[ask] # repeat for FQPQPVQPQQGYIPDMAQPGLPPV [P15D]
[reply] 3.04

[ask] Likewise for FQPQPVQYQQGYIPPMAQPGLPPV [P8Y] ?
[reply] 2.53
